Ref: patent US20160257732A1

assayed-target: HA of A/Kawasaki/9/86 (H1N1) (influenza A virus)
assay-procedure: cell-based or functional assay
# strict inequality: Neutralization IC50, H1-Kaw86 < 0.5 mg/L yields Yes, everything else yields No

[ask] Determine whether this binder shows Neutralization IC50, H1-Kaw86 lower than 0.5 mg/L (ties excluded): Antibody 15 (antibody, V domains shown) VH: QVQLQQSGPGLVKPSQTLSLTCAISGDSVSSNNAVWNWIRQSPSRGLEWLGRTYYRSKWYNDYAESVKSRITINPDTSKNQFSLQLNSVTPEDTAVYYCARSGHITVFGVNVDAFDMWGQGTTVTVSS VL: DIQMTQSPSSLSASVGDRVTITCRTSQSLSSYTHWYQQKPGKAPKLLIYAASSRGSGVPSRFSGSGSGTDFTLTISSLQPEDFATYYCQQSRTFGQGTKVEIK
[reply] Yes
